Each entry below carries its recorded IC50.
target.or.test.system: human integrin αvβ6 (Homo sapiens (Human), UniProt P06756+P18564)
Sequence (P06756 31-992): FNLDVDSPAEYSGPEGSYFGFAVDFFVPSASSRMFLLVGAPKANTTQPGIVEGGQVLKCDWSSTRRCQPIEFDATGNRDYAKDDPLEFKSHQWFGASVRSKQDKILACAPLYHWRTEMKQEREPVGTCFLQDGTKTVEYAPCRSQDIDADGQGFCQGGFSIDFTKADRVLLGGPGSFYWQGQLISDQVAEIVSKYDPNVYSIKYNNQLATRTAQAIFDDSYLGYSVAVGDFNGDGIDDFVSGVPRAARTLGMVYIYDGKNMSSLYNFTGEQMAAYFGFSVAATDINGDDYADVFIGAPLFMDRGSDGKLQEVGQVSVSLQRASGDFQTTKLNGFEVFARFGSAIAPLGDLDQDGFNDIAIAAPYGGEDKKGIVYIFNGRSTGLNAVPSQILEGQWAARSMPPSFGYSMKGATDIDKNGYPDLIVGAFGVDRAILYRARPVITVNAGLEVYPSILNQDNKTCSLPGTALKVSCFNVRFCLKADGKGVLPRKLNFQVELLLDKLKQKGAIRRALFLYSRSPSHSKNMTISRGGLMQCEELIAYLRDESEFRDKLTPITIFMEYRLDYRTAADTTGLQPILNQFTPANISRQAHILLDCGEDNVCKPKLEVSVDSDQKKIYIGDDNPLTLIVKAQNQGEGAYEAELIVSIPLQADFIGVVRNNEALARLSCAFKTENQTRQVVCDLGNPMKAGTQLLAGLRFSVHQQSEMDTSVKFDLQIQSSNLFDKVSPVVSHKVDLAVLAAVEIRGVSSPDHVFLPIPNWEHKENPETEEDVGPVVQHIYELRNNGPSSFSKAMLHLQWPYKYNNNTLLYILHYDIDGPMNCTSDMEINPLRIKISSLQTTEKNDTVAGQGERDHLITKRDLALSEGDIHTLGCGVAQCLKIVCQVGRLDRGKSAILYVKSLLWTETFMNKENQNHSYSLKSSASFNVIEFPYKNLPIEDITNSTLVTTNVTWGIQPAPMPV
Sequence (P18564 22-707): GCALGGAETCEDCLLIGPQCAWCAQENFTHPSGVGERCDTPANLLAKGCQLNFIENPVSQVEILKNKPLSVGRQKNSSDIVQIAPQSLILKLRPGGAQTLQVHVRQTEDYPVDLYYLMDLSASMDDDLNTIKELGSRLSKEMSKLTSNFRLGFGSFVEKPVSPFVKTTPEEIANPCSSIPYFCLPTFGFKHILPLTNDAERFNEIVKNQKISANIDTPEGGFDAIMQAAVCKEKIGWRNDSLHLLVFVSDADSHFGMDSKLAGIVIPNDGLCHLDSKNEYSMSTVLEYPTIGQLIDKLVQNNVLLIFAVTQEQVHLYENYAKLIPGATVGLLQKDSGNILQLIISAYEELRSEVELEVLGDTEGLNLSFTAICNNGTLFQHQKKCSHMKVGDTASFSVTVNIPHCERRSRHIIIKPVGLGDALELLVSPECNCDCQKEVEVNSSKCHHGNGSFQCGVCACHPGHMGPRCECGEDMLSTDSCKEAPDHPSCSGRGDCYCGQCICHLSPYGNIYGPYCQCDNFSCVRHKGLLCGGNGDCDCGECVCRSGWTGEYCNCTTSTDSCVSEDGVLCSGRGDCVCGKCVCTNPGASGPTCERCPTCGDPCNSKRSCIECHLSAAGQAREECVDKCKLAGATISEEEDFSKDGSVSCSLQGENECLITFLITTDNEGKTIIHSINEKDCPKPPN
measurement.notes: Proximity-based integrin receptor binding assay (ALPHASCREEN) for inhibitor potency
measurement.conditions: inhibition of binding of TGF-b1 LAP to human integrin αvβ6; values given in ranges
Method: To gauge the potency of inhibitors of binding to human integrin αvβ6, inhibitor compounds and integrin were incubated together with TGF-b1 LAP and biotinylated anti-LAP antibody plus acceptor and donor beads, following the manufacture's recommendations. The donor beads were coated with streptavidin. […] All incubations occurred at room temperatures in 50 mM Tris-HCl, pH 7.5, 0.1% BSA supplemented with 1 mM each CaCl2 and MgCl2. […] 2. […] After another 30 minute incubation, samples were then read. […]
readout.kind: IC50

[
  {
    "molecule": "CC(C)CC(=O)N[C@@H](CCO[C@H]1C[C@H](CCc2ccc3c(n2)NCCC3)C1)C(=O)O",
    "test.result": "< 50 nM"
  },
  {
    "molecule": "Cn1cc2cc(C(=O)N[C@@H](CCO[C@H]3C[C@H](CCc4ccc5c(n4)NCCC5)C3)C(=O)O)ccc2n1",
    "test.result": "50 to 250 nM"
  },
  {
    "molecule": "CC(C)(C(=O)NC(CCO[C@H]1C[C@H](CCc2ccc3c(n2)NCCC3)C1)C(=O)O)c1cccnc1 (some centres unmarked) [Compound 106]",
    "test.result": "< 50 nM"
  },
  {
    "molecule": "O=C(NC(CCOCCCCc1ccc2c(n1)NCCC2)C(=O)O)c1cc(F)cc(C(F)(F)F)c1 (centres unmarked)",
    "test.result": "50 to 250 nM"
  },
  {
    "molecule": "C[C@H](CNC(=O)OC(C)(C)C)OC(=O)N[C@@H](CCO[C@H]1C[C@H](CCc2ccc3c(n2)NCCC3)C1)C(=O)O",
    "test.result": "< 50 nM"
  },
  {
    "molecule": "Cn1cc(-c2cccc(C(=O)NC(CCO[C@H]3C[C@H](CCc4ccc5c(n4)NCCC5)C3)C(=O)O)c2)cn1 (some centres unmarked)",
    "test.result": "< 50 nM"
  },
  {
    "molecule": "O=C(NC(CCO[C@H]1C[C@H](CCc2ccc3c(n2)NCCC3)C1)C(=O)O)C1Cc2ccccc2C1 (some centres unmarked) [Compound 107]",
    "test.result": "< 50 nM"
  },
  {
    "molecule": "O=C(NC(CCO[C@H]1C[C@H](CCc2ccc3c(n2)NCCC3)C1)C(=O)O)c1ccncc1 (some centres unmarked)",
    "test.result": "< 50 nM"
  },
  {
    "molecule": "CC(C)(C)OC(=O)N1CC(OC(=O)N[C@@H](CCO[C@H]2C[C@H](CCc3ccc4c(n3)NCCC4)C2)C(=O)O)(c2cccc(Cl)c2)C1",
    "test.result": "< 50 nM"
  },
  {
    "molecule": "O=C(CC1CC1)N[C@@H](CCO[C@H]1C[C@H](CCc2ccc3c(n2)NCCC3)C1)C(=O)O",
    "test.result": "< 50 nM"
  },
  {
    "molecule": "CC(=O)NC[C@@H](C)OC(=O)N[C@@H](CCO[C@H]1C[C@H](CCc2ccc3c(n2)NCCC3)C1)C(=O)O",
    "test.result": "250 to 1000 nM"
  },
  {
    "molecule": "O=C(O)C(CCO[C@H]1C[C@H](CCc2ccc3c(n2)NCCC3)C1)NC(=O)C1(c2ccccc2)CCC1 (some centres unmarked)",
    "test.result": "< 50 nM"
  },
  {
    "molecule": "CC(C)(C)c1ccnc(N[C@@H](CCO[C@H]2C[C@H](CCc3ccc4c(n3)NCCC4)C2)C(=O)O)n1",
    "test.result": "250 to 1000 nM"
  },
  {
    "molecule": "O=C(N[C@@H](CCO[C@H]1C[C@H](CCc2ccc3c(n2)NCCC3)C1)C(=O)O)O[C@H]1CC[C@H](c2ccccc2)CC1",
    "test.result": "250 to 1000 nM"
  }
]

###

target.or.test.system: human integrin αvβ6 (Homo sapiens (Human), UniProt P06756+P18564)
measurement.notes: Proximity-based integrin receptor binding assay (ALPHASCREEN) for inhibitor potency
measurement.conditions: inhibition of binding of TGF-b1 LAP to human integrin αvβ6; values given in ranges; listed as 83*
readout.kind: IC50

[
  {
    "compound": "CC(C)(C(=O)NC(CCO[C@H]1C[C@H](CCc2ccc3c(n2)NCCC3)C1)C(=O)O)c1ccccc1 (stereo partly shown)",
    "target.or.test.system": "human integrin αvβ6 (Homo sapiens (Human), UniProt P06756+P18564)",
    "test.result": "> 1000 nM"
  }
]

###

target.or.test.system: human integrin αvβ6 (Homo sapiens (Human), UniProt P06756+P18564)
measurement.notes: Proximity-based integrin receptor binding assay (ALPHASCREEN) for inhibitor potency
measurement.conditions: inhibition of binding of TGF-b1 LAP to human integrin αvβ6; values given in ranges
Each entry below carries its recorded IC50.

[
  {
    "molecule": "CCC1(C(=O)N[C@@H](CCO[C@H]2C[C@H](CCc3ccc4c(n3)NCCC4)C2)C(=O)O)CCC(F)(F)CC1 [Compound 181]",
    "IC50": "< 50 nM"
  },
  {
    "molecule": "O=C(O)C(CCO[C@H]1C[C@H](CCc2ccc3c(n2)NCCC3)C1)NC(=O)[C@@H](O)c1ccccc1 (stereo partly shown) [Compound 79]",
    "IC50": "50 to 250 nM"
  },
  {
    "molecule": "O=C(NC(CCOCCCCc1ccc2c(n1)NCCC2)C(=O)O)c1c(Cl)cncc1Cl (stereo not shown) [Compound 189]",
    "IC50": "50 to 250 nM"
  },
  {
    "molecule": "Cc1cncc(Cl)c1C(=O)N[C@@H](CCO[C@H]1C[C@@H](CCc2ccc3c(n2)NCCC3)C1)C(=O)O [Compound 199]",
    "IC50": "50 to 250 nM"
  },
  {
    "molecule": "COCC(C)(C)C(=O)NC(CCO[C@H]1C[C@H](CCc2ccc3c(n2)NCCC3)C1)C(=O)O (stereo partly shown) [Compound 105]",
    "IC50": "< 50 nM"
  },
  {
    "molecule": "CC(C)OC(=O)N[C@@H](CCO[C@H]1C[C@H](CCc2ccc3c(n2)NCCC3)C1)C(=O)O [Compound 116]",
    "IC50": "< 50 nM"
  },
  {
    "molecule": "N#CC1(C(=O)N[C@@H](CCO[C@H]2C[C@H](CCc3ccc4c(n3)NCCC4)C2)C(=O)O)CCOCC1 [Compound 171]",
    "IC50": "< 50 nM"
  }
]

###

target.or.test.system: human integrin αvβ6 (Homo sapiens (Human), UniProt P06756+P18564)
measurement.notes: Proximity-based integrin receptor binding assay (ALPHASCREEN) for inhibitor potency
measurement.conditions: inhibition of binding of TGF-b1 LAP to human integrin αvβ6; values given in ranges; listed as 61*
pIC50: −log10 of the molar value.

[
  {
    "compound": "O=C(NC(CCO[C@H]1C[C@H](CCc2ccc3c(n2)NCCC3)C1)C(=O)O)c1cccc(-c2cncs2)c1 (stereo partly shown)",
    "target.or.test.system": "human integrin αvβ6 (Homo sapiens (Human), UniProt P06756+P18564)",
    "pIC50": "< 6.00"
  }
]

###

target.or.test.system: human integrin αvβ6 (Homo sapiens (Human), UniProt P06756+P18564)
measurement.notes: Proximity-based integrin receptor binding assay (ALPHASCREEN) for inhibitor potency
measurement.conditions: inhibition of binding of TGF-b1 LAP to human integrin αvβ6; values given in ranges
Method: To gauge the potency of inhibitors of binding to human integrin αvβ6, inhibitor compounds and integrin were incubated together with TGF-b1 LAP and biotinylated anti-LAP antibody plus acceptor and donor beads, following the manufacture's recommendations. The donor beads were coated with streptavidin. […] All incubations occurred at room temperatures in 50 mM Tris-HCl, pH 7.5, 0.1% BSA supplemented with 1 mM each CaCl2 and MgCl2. […] 2. […] After another 30 minute incubation, samples were then read. […]

[
  {
    "compound": "O=C(O)C(CCO[C@H]1C[C@@H](CCc2ccc3c(n2)NCCC3)C1)NC(=O)[C@@H](CO)c1ccccc1 (stereo partly shown) [Compound 71]",
    "target.or.test.system": "human integrin αvβ6 (Homo sapiens (Human), UniProt P06756+P18564)",
    "IC50": "> 1000 nM"
  },
  {
    "compound": "O=C(O)[C@H](CCO[C@H]1C[C@@H](CCc2ccc3c(n2)NCCC3)C1)NC(=O)C1(C(F)(F)F)CCOCC1",
    "target.or.test.system": "human integrin αvβ6 (Homo sapiens (Human), UniProt P06756+P18564)",
    "IC50": "50 to 250 nM"
  },
  {
    "compound": "O=C(N[C@@H](CCO[C@H]1C[C@H](CCc2ccc3c(n2)NCCC3)C1)C(=O)O)c1ccc2cccnc2c1",
    "target.or.test.system": "human integrin αvβ6 (Homo sapiens (Human), UniProt P06756+P18564)",
    "IC50": "50 to 250 nM"
  },
  {
    "compound": "O=C(N[C@@H](CCO[C@H]1C[C@H](CCc2ccc3c(n2)NCCC3)C1)C(=O)O)C1CCc2ccccc21 (single isomer, unassigned) [95*,†]",
    "target.or.test.system": "human integrin αvβ6 (Homo sapiens (Human), UniProt P06756+P18564)",
    "IC50": "> 1000 nM"
  },
  {
    "compound": "O=C(NC(CCOCCCCc1ccc2c(n1)NCCC2)C(=O)O)c1cccc(F)c1Cl (racemic)",
    "target.or.test.system": "human integrin αvβ6 (Homo sapiens (Human), UniProt P06756+P18564)",
    "IC50": "< 50 nM"
  },
  {
    "compound": "CCC(CC(F)F)C(=O)NC(CCO[C@H]1C[C@H](CCc2ccc3c(n2)NCCC3)C1)C(=O)O (single isomer, unassigned) [Example 162b]",
    "target.or.test.system": "human integrin αvβ6 (Homo sapiens (Human), UniProt P06756+P18564)",
    "IC50": "< 50 nM"
  },
  {
    "compound": "O=C(N[C@@H](CCO[C@H]1C[C@H](CCc2ccc3c(n2)NCCC3)C1)C(=O)O)c1ccccc1-c1ccccn1",
    "target.or.test.system": "human integrin αvβ6 (Homo sapiens (Human), UniProt P06756+P18564)",
    "IC50": "50 to 250 nM"
  }
]
